Assay: in vitro
Conditions: monkey, microsomes, pH 7.47
Here the recorded half-life at 1 µM is given for each entry.
Lab book: enter the figure in min, no units written.

CCOc1cccc(Nc2nn(C)c3c2Cc2cc(OCC)c(OCC(N)=O)cc2-3)c1	21.6

Moving on to the next compound.
**Q:** Requested field: half-life at 1 µM. Item: CCOc1cccc(Nc2nn(C)c3c2Cc2cc(OCC)c(OCC(=O)NO)cc2-3)c1
**A:** 1.3

----------
Experiment: In vivo pharmacokinetic test, drug concentration in blood plasma by LC-MS/MS
Set-up: species or system SD rats
Details: male, SD, rat, plasma, iv, 1 mg/kg, SD rats, intravenous 1 mg/kg, 1 h, animal 102M
result-type: concentration at 1 h (ng/mL)
Give the number; ng/mL is assumed, so skip it.

**Q:** Entry CCOc1cccc(Nc2nn(C)c3c2Cc2cc(OCC)c(OCC(N)=O)cc2-3)c1 has what concentration at 1 h?
**A:** 842
